test target: T1, human soluble urokinase plasminogen activator receptor (hsuPAR) (human, UniProt Q03405 23-303, limits assumed)
T1 construct: also called human suPAR; rhuPAR-His
T1 sequence (Q03405 23-303 limits assumed): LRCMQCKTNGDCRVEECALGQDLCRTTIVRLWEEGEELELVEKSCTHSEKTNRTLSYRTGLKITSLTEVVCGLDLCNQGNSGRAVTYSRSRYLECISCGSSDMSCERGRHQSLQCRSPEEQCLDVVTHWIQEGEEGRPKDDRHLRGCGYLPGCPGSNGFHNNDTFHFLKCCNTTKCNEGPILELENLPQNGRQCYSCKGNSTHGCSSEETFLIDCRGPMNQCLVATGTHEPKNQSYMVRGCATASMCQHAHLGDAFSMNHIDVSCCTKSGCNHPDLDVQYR
method: BLI (Octet) off-rate screen of scFv

binder	koff [s⁻¹]
suPAR_DB01_F10 (scFv, V domains shown, Screened as scFv) VH: QVQLVQSGAEVKKPGASVKVSCKASGYTFTSYYMHWVRQAPGQGLEWMGWIDHENGSTSYDQKFQGRVTMTRDTSTSTVYMELSSLRSEDTAVYYCARGYDVDWFVYWGQGTLVTVSS VL: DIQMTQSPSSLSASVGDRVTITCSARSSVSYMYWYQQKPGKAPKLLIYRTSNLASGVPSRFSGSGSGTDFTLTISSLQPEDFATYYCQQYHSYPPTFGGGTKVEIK	0.00183
suPAR_DB02_A04 (scFv, V domains shown, Screened as scFv) VH: QVQLVQSGAEVKKPGASVKVSCKASGYTFTGYYVHWVRQAPGQGLEWMGWIDHENGNTIYDQKFQGRVTMTRDTSTSTVYMELSSLRSEDTAVYYCARGYDVDWFVYWGQGTLVTVSS VL: DIQMTQSPSSLSASVGDRVTITCRASSSVSYMYWYQQKPGKAPKLLIYRTSNLASGVPSRFSGSGSGTDFTLTISSLQPEDFATYYCQQYHSYPPTFGGGTKVEIK	0.00236
suPAR_DB02_B01 (scFv, V domains shown, Screened as scFv) VH: QVQLVQSGAEVKKPGASVKVSCKASGYTFTGHYVHWVRQAPGQGLEWMGWIDHENGNTIYDQKFQGRVTMTRDTSTSTVYMELSSLRSEDTAVYYCARGYDVDWFVYWGQGTLVTVSS VL: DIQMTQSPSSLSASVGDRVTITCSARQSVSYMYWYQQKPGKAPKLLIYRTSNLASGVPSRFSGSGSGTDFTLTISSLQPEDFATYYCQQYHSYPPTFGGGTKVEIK	0.00253
suPAR_DB01_G01 (scFv, V domains shown, Screened as scFv) VH: QVQLVQSGAEVKKPGASVKVSCKASGDTFSSYYMHWVRQAPGQGLEWMGWIDHENGNTIYDQKFQGRVTMTRDTSTSTVYMELSSLRSEDTAVYYCARGYDVDWFVYWGQGTLVTVSS VL: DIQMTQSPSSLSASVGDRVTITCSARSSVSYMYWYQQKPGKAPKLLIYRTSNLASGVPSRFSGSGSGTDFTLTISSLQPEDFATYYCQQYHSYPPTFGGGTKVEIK	0.00429
